Measured values drawn from patent US20240391948A1 for this set.

- Tested on: U937 cells (human monocytic cell line)
- Experiment Description: BzATP-induced IL-1β secretion inhibition in PMA-differentiated U937 cells
- Format: cell-based
- Experimental Context: U-937, U937 cells differentiated with PMA, read-out: IL-1β production inhibition grade (IC50)
- Method: To evaluate anti-inflammatory efficacy, U937 cells (human monocytic cell line) were differentiated into macrophages using PMA (phorbol 12-myristate 13-acetate) and then induced an inflammatory response with Pam2CSK4 (Pam2CysSerLys4) or BzATP (2′(3′)—O-(4-Benzoylbenzoyl)adenosine 5′-triphosphate), the efficacy of taurine-bile acid derivatives in suppressing inflammatory cytokine (IL-1β, TNF-α) production was measured. […]
Metric: IC50

These recorded examples may help you get a feel for the data.
| Sample Smiles | IC50 |
| --- | --- |
| C[C@H](CCC(=O)N(CCS(=O)(=O)O)Cc1ccccc1)[C@H]1CC[C@H]2[C@@H]3CC[C@@H]4C[C@H](O)CC[C@]4(C)[C@H]3CC[C@]12C | 50 to 100 nM |
| CC[C@H]1[C@@H](O)[C@@H]2[C@H](CC[C@]3(C)[C@@H]([C@H](C)CCC(=O)N[C@@H](C)CS(=O)(=O)O)CC[C@@H]23)[C@@]2(C)CC[C@@H](O)C[C@@H]12 | 100 to 200 nM |
| C[C@H](CCC(=O)N(CCS(=O)(=O)O)C1CCOCC1)[C@H]1CC[C@H]2[C@@H]3CC[C@@H]4CC(=O)CC[C@]4(C)[C@H]3CC[C@]12C | ≥ 200 nM |
| C[C@H](CCC(=O)N1CCC[C@@H]1CS(=O)(=O)O)[C@H]1CC[C@H]2[C@@H]3[C@H](O)C[C@@H]4C[C@H](O)CC[C@]4(C)[C@H]3C[C@H](O)[C@]12C | < 50 nM |

Asked: // fetch U937 cells (human monocytic cell line) IC50 for `C[C@H](CCC(=O)NC[C@H](C)S(=O)(=O)O)[C@H]1CC[C@H]2[C@@H]3CC[C@@H]4C[C@H](O)CC[C@]4(C)[C@H]3CC[C@]12C`
Given back: < 50 nM

----------
- Test system: U937 cells (human monocytic cell line)
- Experiment Description: BzATP-induced IL-1β secretion inhibition in PMA-differentiated U937 cells
- Type: cell-based
- Experimental Context: U-937, U937 cells differentiated with PMA, read-out: IL-1β production inhibition grade (IC50)
Metric: IC50

Answered examples (2):
| Sample Smiles | Experimental Value |
| --- | --- |
| C[C@H](CCC(=O)NC1(CS(=O)(=O)O)CC1)[C@H]1CC[C@H]2[C@@H]3CC[C@@H]4C[C@H](O)CC[C@]4(C)[C@H]3C[C@H](O)[C@]12C | 100 to 200 nM |
| C[C@H](CCC(=O)N(CCN(C)C)CCS(=O)(=O)O)[C@H]1CC[C@H]2[C@@H]3CC[C@@H]4C[C@H](O)CC[C@]4(C)[C@H]3C[C@H](O)[C@]12C | 50 to 100 nM |

// switching to the query molecule
Asked: Endpoint output: IC50 of `CC[C@H]1[C@@H](O)[C@@H]2[C@H](C[C@H](O)[C@]3(C)[C@@H]([C@H](C)CCC(=O)N(CCS(=O)(=O)O)Cc4ccccc4)CC[C@@H]23)[C@@]2(C)CC[C@@H](O)C[C@@H]12` . Value?
Given back: ≥ 200 nM
